Measured cell viability of individual entries
- Tested on: SEM cells
- protocol: cell viability relative to DMSO control; higher = less cytotoxic
- testSettings: HPLM + 10% dialyzed FBS; 48 h; 15.4 µM

- compound: "CC(C)(O)CNc1nc(Nc2ccnc(C(F)(F)F)c2)nc(-c2cccc(C(F)(F)F)n2)n1"
  cell viability / %: 33.1
- compound: "Cn1cc(-c2ccc3ncc(Cc4ccc5ncccc5c4)n3n2)cn1"
  cell viability / %: 72.8
- compound: "CN(C)c1nc(N(C)C)nc(N(C)C)n1"
  cell viability / %: 92.2
- compound: "CC1=CC2=C(O1)C(=C3OC(=O)\\C=C(C)/C3=C2)C"
  cell viability / %: 88.9
- compound: "C[C@@H]1CN(CC(=O)N2CC(C)(C)c3ncc(Cc4ccc(F)cc4)cc32)[C@@H](CN2CCOC[C@H]2C)CN1"
  cell viability / %: 104
- compound: "COC(=O)C/1=C/O[C@@H](O)[C@H]\\2[C@@H]1C\\C=C2CO"
  cell viability / %: 104
- compound: "Cc1c(OCC(F)(F)F)ccnc1C[S+]([O-])c1nc2ccccc2[nH]1 (stereo unspecified)"
  cell viability / %: 104
- compound: "Cn1c(=O)c2c(ncn2CC(O)CO)n(C)c1=O (stereo unspecified)"
  cell viability / %: 108
- compound: "COc1ccc2cc(-c3[nH]c(-c4ccc([S+](C)[O-])cc4)nc3-c3ccncc3)ccc2c1 (stereo unspecified)"
  cell viability / %: 127
- compound: "CN(C)C(=O)COC(=O)Cc1ccc(OC(=O)c2ccc(NC(=N)N)cc2)cc1"
  cell viability / %: 118
- compound: "N/C(=N\\C(=O)c1nc(Cl)c(N)nc1N)NCc1ccccc1"
  cell viability / %: 85

---

- System: P12-Ichikawa
- protocol: cell viability relative to DMSO control; higher = less cytotoxic
- testSettings: RPMI 5 mM glucose + 10% FBS; 48 h; 0.0632 µM

- compound: "CNC(=O)c1c(F)cccc1Nc1nc(Nc2cc3c(cc2OC)CCN3C(=O)CN(C)C)nc2[nH]ccc12"
  cell viability, %: 114
- compound: "O=C1c2cccc(O)c2C(=O)c2c(O)cc(CO)cc21"
  cell viability, %: 92.3
- compound: "c1cc(OCCN2CCCCC2)cc(-c2n[nH]c3ccc(-c4nc[nH]n4)cc23)c1"
  cell viability, %: 123
- compound: "O=P(O)(O)C(O)(Cc1cccnc1)P(=O)(O)[O][Na] (centres undefined)"
  cell viability, %: 94.5
- compound: "CCCn1c(=O)c2[nH]c(C34CC5CC3C[C@@H](C5)C4)nc2n(CCC)c1=O"
  cell viability, %: 136
- compound: "CCOC(=O)c1ccc(C#Cc2ccc3c(c2)C(C)(C)CCS3)nc1"
  cell viability, %: 108
- compound: "CCC(CC)[C@H](NC(C)=O)[C@@H]1[C@H](O)[C@@H](C(=O)O)C[C@H]1NC(=N)N"
  cell viability, %: 84.2
- compound: "COC(=O)N[C@H](C(=O)N[C@@H](Cc1ccccc1)[C@@H](O)CN(Cc1ccc(-c2ccccn2)cc1)NC(=O)[C@@H](NC(=O)OC)C(C)(C)C)C(C)(C)C"
  cell viability, %: 112
- compound: "CO[C@@H]1[C@H](N(C)C(=O)c2ccccc2)C[C@H]2O[C@]1(C)n1c3ccccc3c3c4c(c5c6ccccc6n2c5c31)C(=O)NC4"
  cell viability, %: 119
- compound: "Cc1cnc(Nc2ccc(OCCN3CCCC3)cc2)nc1Nc1cccc([S+](=O)([O-])NC(C)(C)C)c1"
  cell viability, %: 120
- compound: "CC(C)(O)CNc1nc(Nc2ccnc(C(F)(F)F)c2)nc(-c2cccc(C(F)(F)F)n2)n1"
  cell viability, %: 104
- compound: "CC1=CC2=C(O1)C(=C3OC(=O)\\C=C(C)/C3=C2)C"
  cell viability, %: 103
- compound: "c1ccc2c(-c3cnn4cc(-c5ccc(N6CCNCC6)cc5)cnc34)ccnc2c1"
  cell viability, %: 191
- compound: "C[Se]CCC(N)C(=O)O (centres undefined)"
  cell viability, %: 85.9

---

Measured AUC of viability dose-response curve of individual entries
- Test system: P12-Ichikawa
- protocol: AUC of viability dose-response curve (% viability x log10 dose units); higher = less sensitive
- testSettings: RPMI 5 mM glucose + 10% FBS; 48 h
metric: AUC of viability dose-response curve

- compound: "O=C(NCc1ccccc1)[C@H](Cc1ccccc1)NC(=O)[C@H]1O[C@@H]1C(=O)NCCc1ccc(O)cc1"
  testResult: 461
- compound: "CCCN[S+](=O)([O-])Nc1ncnc(OCCOc2ncc(Br)cn2)c1-c1ccc(Br)cc1"
  testResult: 431
- compound: "CC(=O)SCC(Cc1ccccc1)C(=O)NCC(=O)OCc1ccccc1 (stereo unspecified)"
  testResult: 445
- compound: "CCC(C)N(C)C(=O)c1cc2ccccc2c(-c2ccccc2Cl)n1 (stereo unspecified)"
  testResult: 471
- compound: "Cc1nc2c([nH]1)-c1ccccc1N(C(=O)c1ccc(NC(=O)c3ccccc3-c3ccccc3)cc1)CC2"
  testResult: 467
- compound: "CC1=C(C)C2=C(S1)[N]3C(=NN=C3[C@H](CC(=O)OC(C)(C)C)/N=C2/C4=CC=C(Cl)C=C4)C"
  testResult: 313
- compound: "CN1[C@@H]2CC(O)C[C@H]1[C@@H]1O[C@@H]12 (stereo partly specified)"
  testResult: 448
- compound: "CCC(=O)O[C@@]1([C@H](C)C[C@H]2[C@@H]3C[C@H](F)\\C4=C\\C(=O)\\C=C/[C@]4(C)[C@@]3(F)[C@@H](O)C[C@]12C)C(=O)SCF"
  testResult: 292
- compound: "CCC1=C(C)CN(C(=O)NCCc2ccc(S(=O)(=O)NC(=O)N[C@H]3CC[C@H](C)CC3)cc2)C1=O"
  testResult: 442
- compound: "CO[C@@H]1[C@H](N(C)C(=O)c2ccccc2)C[C@H]2O[C@]1(C)n1c3ccccc3c3c4c(c5c6ccccc6n2c5c31)C(=O)NC4"
  testResult: 380
- compound: "CC1(C)OC/2=C(\\[C@H](NCC3=CC=CC=C3)[C@@H]1O)C(=O)C4=CC=CC=C4C2=O"
  testResult: 397
- compound: "COC1=CC=C2C(=CC=NC2=C1)OC3=CC=C(NC(=O)\\C4=C(C)\\N(CC(C)(C)O)N(C4=O)C5=CC=CC=C5)C=C3F"
  testResult: 468
- compound: "CCOC(=O)c1ncn2c1CN(C)C(=O)c1cc(F)ccc1-2"
  testResult: 432
- compound: "Cc1cnc(Nc2ccc(OCCN3CCCC3)cc2)nc1Nc1cccc([S+](=O)([O-])NC(C)(C)C)c1"
  testResult: 471
- compound: "c1cc(-c2sc(-c3ccncc3)c(-c3ccncc3)c2-c2ccncc2)ccn1"
  testResult: 466
- compound: "CC(C)[C@H](CO)Nc1nc(Nc2ccc(C(=O)O)c(Cl)c2)c2ncn(C(C)C)c2n1"
  testResult: 414

---

- Tested on: P12-Ichikawa
- protocol: cell viability relative to DMSO control; higher = less cytotoxic
- testSettings: RPMI 5 mM glucose + 10% dialyzed FBS; 48 h; 46.1 µM

- compound: "CC1(C)CC(=O)c2c(C(F)(F)F)nn(-c3ccc(C(N)=O)c(NC4CCC(OC(=O)CN)CC4)c3)c2C1 (stereo not drawn)"
  cell viability / %: 28.5
- compound: "CCOC(=O)c1ncn2c1CN(C)C(=O)c1cc(F)ccc1-2"
  cell viability / %: 46.7
- compound: "COc1cc(/C=C/C(=O)CC(=O)/C=C/c2ccc(O)c(OC)c2)ccc1O"
  cell viability / %: 4.18
- compound: "CC1OC(OC/2=C(/OC3=C(C(=CC(=C3)O)O)C2=O)C4=CC=C(O)C=C4)C(O)C(OC(C)=O)C1OC(C)=O (stereo not drawn)"
  cell viability / %: 104
- compound: "CCC(=O)O[C@@]1([C@H](C)C[C@H]2[C@@H]3C[C@H](F)\\C4=C\\C(=O)\\C=C/[C@]4(C)[C@@]3(F)[C@@H](O)C[C@]12C)C(=O)SCF"
  cell viability / %: 46.7
- compound: "Cn1c(=O)c2c(ncn2CC(O)CO)n(C)c1=O (stereo not drawn)"
  cell viability / %: 119
- compound: "Cn1cc(-c2ccc3ncc(Cc4ccc5ncccc5c4)n3n2)cn1"
  cell viability / %: 110
- compound: "Cc1ccc(F)c(NC(=O)Nc2ccc(-c3cccc4[nH]nc(N)c34)cc2)c1"
  cell viability / %: 92.6

---

Measured cell viability of individual entries
- System: P12-Ichikawa
- protocol: cell viability relative to DMSO control; higher = less cytotoxic
- testSettings: RPMI 5 mM glucose + 10% FBS; 48 h; 0.00702 µM
metric: cell viability (%)

- smi: "CN(C(=O)c1ccc(F)cc1C(F)(F)F)C1CCN(c2nnc(-c3ccnn3C)c3ccccc23)CC1"
  testResult: 81.5
- smi: "COc1ccc([C@@H]2CNC(=O)C2)cc1OC1CCCC1"
  testResult: 110
- smi: "CO[C@@H]1[C@H](N(C)C(=O)c2ccccc2)C[C@H]2O[C@]1(C)n1c3ccccc3c3c4c(c5c6ccccc6n2c5c31)C(=O)NC4"
  testResult: 111
- smi: "CCCCOc1ccc(C(=O)Nc2ccc(F)cc2F)cc1"
  testResult: 82
- smi: "CC1(C)O[C@H]2CC(=O)OC[C@]23[C@H]2CC[C@@]4(C)[C@H](c5ccoc5)OC(=O)[C@H]5O[C@]54[C@]2(C)C(=O)C[C@@H]13"
  testResult: 102
- smi: "CCOC(=O)c1ccc(C#Cc2ccc3c(c2)C(C)(C)CCS3)nc1"
  testResult: 106
- smi: "Cn1cc(-c2ccncc2)c(-c2ccc(OCc3ccc4ccccc4n3)cc2)n1"
  testResult: 120
- smi: "COc1ccc2cccc(CCNC(C)=O)c2c1"
  testResult: 105
- smi: "COc1cc(/C=C/C(=O)CC(=O)/C=C/c2ccc(O)c(OC)c2)ccc1O"
  testResult: 98.4

Measured values drawn from the supplement of paper PMC11451515 for this set.
